Tested on: hCF
Assay: Cellular viability (ATP depletion) in 2D monoculture
Settings: Homo sapiens, 72 h, read-out: Cellular viability (ATP depletion) IC50
Structures can show the parent of a compound that is named as a salt.
outcome-measure: IC50
Field note: include the unit after the figure.

• COc1cccc2c1C(=O)c1c(O)c3c(c(O)c1C2=O)C[C@@](O)(C(=O)CO)C[C@@H]3O[C@H]1C[C@H](N)[C@H](O)[C@H](C)O1 [Doxorubicin HCl] = 0.11 µM
• CS(=O)(=O)CCNCc1ccc(-c2ccc3ncnc(Nc4ccc(OCc5cccc(F)c5)c(Cl)c4)c3c2)o1 [Lapatinib] = 11 µM

Field: next molecule
Challenge: For the molecule shown here, CCN(CC)CCNC(=O)c1c(C)[nH]c(/C=C2\C(=O)Nc3ccc(F)cc32)c1C [Sunitinib Malate] , give the reported IC50.
Response given: 4 µM
